Biological target: Chymotrypsinogen A (Bos taurus, UniProt P00766)
Experiment: Enzymatic stability assessed as bovine pancreatic alpha-chymotrypsin-mediated compound hydrolysis by measuring parent compound remaining at 100 uM incubated for 1 hr by LC-MS/MS analysis
Type: ADME
Conditions: cattle, read-out: Stabilty
Numbered stars: 1 amine (or outer) side, 2 acyl side, 3 side chain; on linkers, the order of the positions; unused ones are H or OH. Bridge positions count the residues as written; N and C are the ends. Square brackets hold non-standard residues; d marks the D form. Peptide text beside a SMILES is read from it. Trp(5-F) = N[C@@H](Cc1c[nH]c2ccc(F)cc12)C(=O)O; mXylylene = c1cc(C[*:1])cc(C[*:2])c1; αMeP = C[C@@]1(C(=O)O)CCCN1; Mpa = O=C(O)CCS
Measurement kind: remaining at 1 h, 100 µM (%)
Numbers only here, please. The scale is %.

Look over these answered cases.
Molecule	remaining at 1 h, 100 µM [%]
C[C@@]12CCCN1C(=O)[C@H](Cc1ccc(O)cc1)NC(=O)[C@H](Cc1cnc[nH]1)NC(=O)[C@H](CC(=O)O)NC(=O)[C@H](Cc1c[nH]c3ccc(F)cc13)NC(=O)[C@H](Cc1c[nH]c3ccc(F)cc13)NC(=O)CNC(=O)[C@H](CCCCN)NC(=O)CCSCc1cccc(c1)CSC[C@@H](C(N)=O)NC2=O ([Mpa]KG[Trp(5-F)][Trp(5-F)]DHY[αMeP]C-NH2; linker 1-10 via mXylylene)	10.9
NCCCC[C@@H]1NC(=O)CCSCc2cccc(c2)CSC[C@@H](C(N)=O)NC(=O)[C@@H]2CCCN2C(=O)[C@H](Cc2ccc(O)cc2)NC(=O)[C@H](Cc2c[nH]cn2)NC(=O)[C@H](CC(=O)O)NC(=O)[C@H](Cc2c[nH]c3ccc(F)cc23)NC(=O)[C@H](Cc2c[nH]c3ccc(F)cc23)NC(=O)CNC1=O	12
C[C@@H]1NC(=O)CCSCc2cccc(c2)CSC[C@@H](C(N)=O)NC(=O)[C@@H]2CCCN2C(=O)[C@H](Cc2ccc(O)cc2)NC(=O)[C@H](Cc2cnc[nH]2)NC(=O)[C@H](CC(=O)O)NC(=O)[C@H](Cc2c[nH]c3ccc(F)cc23)NC(=O)[C@H](Cc2c[nH]c3ccc(F)cc23)NC(=O)CNC1=O ([Mpa]AG[Trp(5-F)][Trp(5-F)]DHYPC-NH2; linker 1-10 via mXylylene)	15.5

Now for a further molecule.
**Q:** Quick check: remaining at 1 h, 100 µM of "COc1ccc(C[C@@H]2NC(=O)[C@H]([C@@H](C)OC)NC(=O)[C@@H]3CCC(=O)NCc4cccc(c4)C[C@H](NC(=O)[C@@H](C)NC(=O)[C@H](C)NC(=O)CCSCc4cccc(c4)CSCCNC(=O)[C@]4(C)CCCN4C2=O)C(=O)N[C@@H](Cc2c[nH]c4ccc(F)cc24)C(=O)N3C)cc1" ?
**A:** 95.7
